Source listed as patent US8518945B2.

measured_parameter: melting point

INSERT INTO assay_data (input_smiles, measured_parameter, result) VALUES
  ('CC(C)(C)[C@@H](NC(=O)c1c[nH]c2ncc(C3CC3)nc12)C(=O)N1CCCC1', 'melting point', '201 to 203 °C'),
  ('Cc1nc(-c2cnc3[nH]cc(C(=O)N[C@@H](C(=O)N4CC(C#N)C4)C4CC4)c3n2)cn1CC(F)(F)F', 'melting point', '255 to 256 °C'),
  ('CC(C)[C@@H](NC(=O)c1c[nH]c2ncc(C3CC3)nc12)C(=O)N1CCCCC1', 'melting point', '183 to 185 °C'),
  ('CC(=O)N1CCN(c2ccc(-c3cnc4[nH]cc(C(=O)N[C@@H](C(=O)N5CC(C#N)C5)C5CC5)c4n3)cc2)CC1', 'melting point', '185 to 188 °C');

* * *

- study_target: h-jak3(810-1124) (JAK3: Recombinant human kinase domain) (Homo sapiens)
- Construct: jak3(810- 1124)-sf9-c
- measurement_protocol: Determination of IC50 of Janus Kinase (JAK) inhibition: JAK3 radioactive end-point 33P-ATP kinase assay
- applied_conditions: no additive; ATP 1.5 uM, peptide 50 uM, 20 minutes, room temperature; read-out: Ic50 h-jak3(810-1124)-sf9-c: no additive
Listed compounds paired with reported IC50
measured_parameter: IC50 (nM)

INSERT INTO assay_data (input_smiles, measured_parameter, qualifier_symbol, quantitative_readout) VALUES
  ('O=C(N[C@@H](C(=O)N1CC2(COC2)C1)C1CC1)c1c[nH]c2ncc(C3CC3)nc12', 'IC50', '=', 0.75),
  ('N#CC1CN(C(=O)[C@H](NC(=O)c2c[nH]c3ncc(-c4ccccc4)nc23)C2CC2)C1', 'IC50', '≤', 0.32),
  ('Cn1cc(-c2cnc3[nH]cc(C(=O)N[C@@H](C(=O)N4CCS(=O)(=O)CC4)C4CC4)c3n2)cn1', 'IC50', '=', 4.23),
  ('N#CC1CN(C(=O)[C@H](NC(=O)c2c[nH]c3ncc(-c4cn(-c5cc(F)cc(F)c5F)cn4)nc23)C2CC2)C1', 'IC50', '=', 1.67);

* * *

- study_target: h-jak3(810-1124) (JAK3: Recombinant human kinase domain) (Homo sapiens, UniProt P52333)
- Construct: jak3(810- 1124)-sf9-c
- Sequence (P52333 810-1124): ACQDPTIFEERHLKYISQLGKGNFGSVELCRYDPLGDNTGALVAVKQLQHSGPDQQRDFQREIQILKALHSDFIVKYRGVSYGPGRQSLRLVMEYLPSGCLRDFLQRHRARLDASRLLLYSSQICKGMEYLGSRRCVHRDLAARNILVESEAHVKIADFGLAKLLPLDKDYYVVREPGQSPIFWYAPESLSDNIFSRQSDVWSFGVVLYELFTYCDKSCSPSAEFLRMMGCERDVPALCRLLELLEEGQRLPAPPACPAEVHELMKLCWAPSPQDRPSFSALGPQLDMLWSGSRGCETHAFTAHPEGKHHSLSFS
- measurement_protocol: Determination of IC50 of Janus Kinase (JAK) inhibition: JAK3 radioactive end-point 33P-ATP kinase assay
- applied_conditions: no additive; ATP 1.5 uM, peptide 50 uM, 20 minutes, room temperature; read-out: Ic50 h-jak3(810-1124)-sf9-c: no additive
pIC50: −log10 of the molar value.
Consider the following molecules and their measured pIC50 readings.
measured_parameter: pIC50

INSERT INTO assay_data (molecule, study_target, qualifier_symbol, quantitative_readout) VALUES
  ('Cc1nc(-c2cnc3[nH]cc(C(=O)N[C@@H](C(=O)N4CC(C#N)C4)C4CC4)c3n2)cn1-c1ccccc1 [Example I-159]', 'h-jak3(810-1124) (JAK3: Recombinant human kinase domain) (Homo sapiens, UniProt P52333)', '=', 8.58),
  ('CC(C)(C)[C@@H](NC(=O)c1c[nH]c2ncc(-c3ccccn3)nc12)C(=O)N1CCC(C#N)CC1 [Example I-115]', 'h-jak3(810-1124) (JAK3: Recombinant human kinase domain) (Homo sapiens, UniProt P52333)', '=', 8.53),
  ('N#CC1CN(C(=O)[C@H](NC(=O)c2c[nH]c3ncc(C4CC4)nc23)C2CC2)C1 [Example I-68]', 'h-jak3(810-1124) (JAK3: Recombinant human kinase domain) (Homo sapiens, UniProt P52333)', '=', 9.24),
  ('CC(C)(C)[C@@H](NC(=O)c1c[nH]c2ncc(C3CC3)nc12)C(=O)N1CCC(F)(F)CC1 [Example I-52]', 'h-jak3(810-1124) (JAK3: Recombinant human kinase domain) (Homo sapiens, UniProt P52333)', '=', 6.36),
  ('C[C@@H](NC(=O)c1c[nH]c2ncc(C3CC3)nc12)C(=O)N1CCC(F)(F)C1 [Example I-21]', 'h-jak3(810-1124) (JAK3: Recombinant human kinase domain) (Homo sapiens, UniProt P52333)', '=', 7.83),
  ('N#CC1CCN(C(=O)[C@H](NC(=O)c2c[nH]c3ncc(C4CC4)nc23)C2CCCC2)CC1 [Example I-45]', 'h-jak3(810-1124) (JAK3: Recombinant human kinase domain) (Homo sapiens, UniProt P52333)', '=', 9.15),
  ('COc1ccnc2cc(-c3cnc4[nH]cc(C(=O)N[C@@H](C(=O)N5CC(C#N)C5)C5CC5)c4n3)sc12 [Example I-99]', 'h-jak3(810-1124) (JAK3: Recombinant human kinase domain) (Homo sapiens, UniProt P52333)', '=', 9.11),
  ('CC(C)(C)[C@@H](NC(=O)c1c[nH]c2ncc(-c3cccc(N4CCCC4)c3)nc12)C(=O)N1CCC(C#N)CC1 [Example I-51]', 'h-jak3(810-1124) (JAK3: Recombinant human kinase domain) (Homo sapiens, UniProt P52333)', '=', 6.95),
  ('C[C@@H](NC(=O)c1c[nH]c2ncc(-c3cc4nccc(N5CCCC5)c4s3)nc12)C(=O)N1CC(C#N)C1 [Example I-101]', 'h-jak3(810-1124) (JAK3: Recombinant human kinase domain) (Homo sapiens, UniProt P52333)', '=', 7.43),
  ('C[C@@H](NC(=O)c1c[nH]c2ncc(-c3cc4nccc(OCC(F)(F)F)c4s3)nc12)C(=O)N1CC(C#N)C1 [Example I-102]', 'h-jak3(810-1124) (JAK3: Recombinant human kinase domain) (Homo sapiens, UniProt P52333)', '=', 7.37),
  ('C[C@@H](NC(=O)c1c[nH]c2ncc(C3CC3)nc12)C(=O)N1CC[C@@H](F)C1 [Example I-23]', 'h-jak3(810-1124) (JAK3: Recombinant human kinase domain) (Homo sapiens, UniProt P52333)', '=', 8.02),
  ('C[C@@H](NC(=O)c1c[nH]c2ncc(C3CC3)nc12)C(=O)N1CCC(C(F)(F)F)C1 (stereo partly shown) [Example I-25]', 'h-jak3(810-1124) (JAK3: Recombinant human kinase domain) (Homo sapiens, UniProt P52333)', '=', 7.79),
  ('CC(C)(C)[C@@H](NC(=O)c1c[nH]c2ncc(C3CC3)nc12)C(=O)N1CCC(C#N)CC1 [Example I-35]', 'h-jak3(810-1124) (JAK3: Recombinant human kinase domain) (Homo sapiens, UniProt P52333)', '=', 9.17),
  ('N#CC1CN(C(=O)[C@H](NC(=O)c2c[nH]c3ncc(C4CC4)nc23)C2CCOCC2)C1 [Example I-136]', 'h-jak3(810-1124) (JAK3: Recombinant human kinase domain) (Homo sapiens, UniProt P52333)', '=', 8.15),
  ('N#CC1CCN(C(=O)[C@H](NC(=O)c2c[nH]c3ncc(-c4cc(-c5cccs5)ccn4)nc23)C2CC2)CC1 [Example I-154]', 'h-jak3(810-1124) (JAK3: Recombinant human kinase domain) (Homo sapiens, UniProt P52333)', '=', 8.51),
  ('N#CC1CN(C(=O)[C@H](NC(=O)c2c[nH]c3ncc(-c4cc5nccc(OCC(F)(F)F)c5s4)nc23)C2CC2)C1 [Example I-98]', 'h-jak3(810-1124) (JAK3: Recombinant human kinase domain) (Homo sapiens, UniProt P52333)', '=', 8.67),
  ('N#CC1CCN(C(=O)[C@H](NC(=O)c2c[nH]c3ncc(-c4cn(C5CCCC5)nn4)nc23)C2CC2)CC1 [Example I-107]', 'h-jak3(810-1124) (JAK3: Recombinant human kinase domain) (Homo sapiens, UniProt P52333)', '=', 8.18),
  ('CC(=O)N1CCN(C(=O)[C@H](NC(=O)c2c[nH]c3ncc(C4CC4)nc23)C(C)(C)C)CC1 [Example I-57]', 'h-jak3(810-1124) (JAK3: Recombinant human kinase domain) (Homo sapiens, UniProt P52333)', '≥', 9.49),
  ('O=C(N[C@@H](C(=O)N1CCCC1)C1CC1)c1c[nH]c2ncc(C3CC3)nc12 [Example I-5]', 'h-jak3(810-1124) (JAK3: Recombinant human kinase domain) (Homo sapiens, UniProt P52333)', '=', 8.76),
  ('CCn1cc(-c2cnc3[nH]cc(C(=O)N[C@H](CC(F)(F)F)C(=O)N4CCC(C#N)CC4)c3n2)cn1 [Example I-106]', 'h-jak3(810-1124) (JAK3: Recombinant human kinase domain) (Homo sapiens, UniProt P52333)', '=', 8.58),
  ('CC(C)(C)[C@@H](NC(=O)c1c[nH]c2ncc(OC3CCCCC3)nc12)C(=O)N1CCC(C#N)CC1 [Example I-90]', 'h-jak3(810-1124) (JAK3: Recombinant human kinase domain) (Homo sapiens, UniProt P52333)', '=', 8.01),
  ('O=C(N[C@@H](C(=O)N1C[C@@H]2[C@@H](CO)[C@@H]2C1)C1CC1)c1c[nH]c2ncc(C3CC3)nc12 [Example I-86]', 'h-jak3(810-1124) (JAK3: Recombinant human kinase domain) (Homo sapiens, UniProt P52333)', '=', 8.40),
  ('CC1CCCN1C(=O)[C@@H](C)NC(=O)c1c[nH]c2ncc(C3CC3)nc12 (stereo partly shown) [Example I-16]', 'h-jak3(810-1124) (JAK3: Recombinant human kinase domain) (Homo sapiens, UniProt P52333)', '=', 7.14),
  ('CCn1cc(-c2cnc3[nH]cc(C(=O)N[C@@H](C(=O)N4CCC(C)(C#N)C4)C(C)(C)C)c3n2)cn1 (stereo partly shown) [Example I-28]', 'h-jak3(810-1124) (JAK3: Recombinant human kinase domain) (Homo sapiens, UniProt P52333)', '=', 9.29),
  ('CC(C)(C)[C@@H](NC(=O)c1c[nH]c2ncc(OC3CCCC3)nc12)C(=O)N1CCC(C#N)CC1 [Example I-92]', 'h-jak3(810-1124) (JAK3: Recombinant human kinase domain) (Homo sapiens, UniProt P52333)', '=', 7.96),
  ('CC(C)(C)[C@@H](NC(=O)c1c[nH]c2ncc(-c3ccc(C(F)(F)F)cc3)nc12)C(=O)N1CCC(C#N)CC1 [Example I-128]', 'h-jak3(810-1124) (JAK3: Recombinant human kinase domain) (Homo sapiens, UniProt P52333)', '=', 8.55),
  ('CC(C)(C)[C@@H](NC(=O)c1c[nH]c2ncc(C3CC3)nc12)C(=O)N1CCCCC1 [Example I-32]', 'h-jak3(810-1124) (JAK3: Recombinant human kinase domain) (Homo sapiens, UniProt P52333)', '=', 9.01),
  ('CC(C)(C)[C@@H](NC(=O)c1c[nH]c2ncc(-c3cnn(-c4ccc(F)cc4)c3)nc12)C(=O)N1CCC(C#N)CC1 [Example I-117]', 'h-jak3(810-1124) (JAK3: Recombinant human kinase domain) (Homo sapiens, UniProt P52333)', '=', 9.00);
